Entry source: the nanobody polyreactivity screen of Harvey et al. (2022)

assay: yeast display, Sf9 membrane polyspecificity reagent, FACS + sequencing; frameworks hold sequencing errors
reportedEndpoint: polyreactivity (PSR sort gate)

Example entries begin here.
QVQLVESGGGLVQAGGSLRLSCAASGLIMRTNVMGWYRQPPGKERELVAAINFRTGSTYYADSVKGRFTISRDHAKNTVYLQMNSLKPEDTAVYYCAKAERRHYDYWGQGTQVTVSS = low polyreactivity
QVQLVESGGGLVQAGGSLRLSCAASGFTFYHYAMGWYRQAPGKERELGAAISRSGGSTYYADSVKGRFTISRDNAKNTVYLQMNSLKPEDTAVYYCAKVLRAKNSFDYWGQGTQVTVSS = high polyreactivity
QVQLVESGGGLVQAGGSLRLSCAASGSIFPYYVMGWYRQAPGKERYADSVKGRFTISRDNAKNTVYLQMNSLKPVDTAVYYSAAKVPEPPSLDESDYWGQGSQVTVSS = low polyreactivity
QVQLVESGGGLVQAGGSLRLSCAASGRTFYYYAMGWSRPAPGKERELVAGINSGGSTNYADSVKGRFTISRDNAKNTVYLQMNRLKPEDTAVYYCAVEDLGSEGWGWYKEMDYWGQGTQVTVSS = low polyreactivity

# evaluate next
# polyreactivity (PSR sort gate) of QVQLVESGGGLVQAGGSLRLSCAASGSTFNYNAMGWYRQAPGKERELVAAITYSGSSTYYADSVKGRFTISRDNAKNTVYLQMNSLKPEDTAVYYCAAPPYNRPGYGYDYWGQGTQVTVSS = high polyreactivity

---

test: yeast display, Sf9 membrane polyspecificity reagent, FACS + sequencing; frameworks hold sequencing errors
reportedEndpoint: polyreactivity (PSR sort gate)

QVQLVESGGGIFHAGGSLRLRCAASGSIYRGYAMVWYRQAPGKERELVASIRWRGGRTNYADSVKGRFTISRDNAKNTVYLQMNSLKPEDTAVYYCNADQQTIRSGKNDYWGQGTQVTVSS = low polyreactivity
QVQLVESGGGLVQAGGSLRLSCAASGRTYDQYVMGWYRQAPGKERELVAAITSGGSTYYADSVKGRFTISRDNAKNTVYLLMNSLKPEDTAVYYCNARTSVLHDYWGQGTQVTVSS = low polyreactivity

---

experiment: yeast display, Sf9 membrane polyspecificity reagent, FACS + sequencing; frameworks hold sequencing errors
reportedEndpoint: polyreactivity (PSR sort gate)

Example entries begin here.
QVQLVESGGGLVQAGGSLRLSCAASGSTFYGYAMGWYRQAPGKDRELVAAISSGGRTNYADSVKGRFTISRDNAKNTVYLQLHSLKPEDTAVYYCNARRIYGWWEFDYWGQGTQVTVSS = low polyreactivity
QVHLVESGGGLVQAGGSLRLSSAASGFIFLQYAMGWYRQAPGKEREFVAVISRSGGGTYYADSVKGRFTISRDNAKNTVYLQMNSLKPEDTAVYYCAALGATRSRYDYWGQGTQVTVSS = high polyreactivity
QVQLVESGGGLVQAGGSLRLSCAASGRTYGRNAMGWYRQEPGKDRELVASITKRGGSTYYADSVKGRFTISRDNAKNTVYLQMNSLKPEDTAVYYCAVEAYDYWGQGSQVTVSS = high polyreactivity
QVQLVESGGGLVQAGGSLRLSCAASGRTFRRYAMGWYRQAPGKERELVAAIRSDGSTYYADSVKGRFTISRDNAKNTVYLQMNSLKPEDTAVYYCAKVLDQRRRYDYWGQGTQVTVSS = low polyreactivity
QVQLVESGGGLVQAGGSLRLSCAASGSTSDVYAMGWYRQAPGKEREFVAAIRFSGGSTYYADSVKGRFTISRDNAKNTVYLQMNSLKPEDTAVYYCAKRWGIWPRGYYWGQGTQVTVSS = low polyreactivity
QVQIVESGGGLVQAGGSLRLSCAASGYTFRFNAMGWYRQAPGKEREFVAAIDFGGAGTYYADSVKGRFTISRDNAKNTVYLQMNSLKPEDTAVYYCNARDGVTTEFDYWGQGTQVTVSS = low polyreactivity

# polyreactivity (PSR sort gate) of QVQLVESGGGLVQAGGSLRLSCAASGGTFDWNTMGWYRQAPGKERELVASITSGGRTNYAASVKGRFTISRDNAMNPVYLQLNSLKPEDTAVYYCANYPRSAYPWQTWVGQKFDYWGQGTQVTVSS = low polyreactivity

# polyreactivity (PSR sort gate) of QVQLQESGGGLLQVGGSLRLSCAASGTIFIYGFLGWNRQAPGKERELVASINLGGITNYADSVKGRFTISRDNAKKTVYLQMISLKPEDTAVYYCAAYVVTGQNYGYWGQGTQVTVSS = low polyreactivity

# polyreactivity (PSR sort gate) of QVQLVESGGGLFQAGGSLRLSCAASGIIFPRYMGWYRQAPGKERELVAAIRWSSDDTNYADSVKGRFTISRDNAKNTVYLQMNSLKPEDTAVYYCAADSYYDRTIQFEFSARTYEYWGQGTQVTVSS = low polyreactivity

# polyreactivity (PSR sort gate) of QVQLVESGGGLVQAGGSLRLSCAASGSTFDYNAMGWYRQAPGTERELVAAISRGGNTYYADSVKGRFTISRDNAKNTVYLQMNSLKPEDTAVYYCAKDSYGSYRFVRKRQKAYGYWGQGTQVTVSS = low polyreactivity

# polyreactivity (PSR sort gate) of QVQLVESGGGLVQAGGSLRLSCAASGSIFQNYAMGWYRQAPGKERELVAAISWSGDTYYADSVKGRFTISRDNAKNTVYLQMNSLKPEDTAVYYCAATYPYSLYYPYYGGDYDYWGQGTQVTVSS = low polyreactivity

---

test: yeast display, Sf9 membrane polyspecificity reagent, FACS + sequencing; frameworks hold sequencing errors
reportedEndpoint: polyreactivity (PSR sort gate)

QVQHVESGGGLVQAGGSLRLSCAASGSTFWGYAMGWYRQAPGKERELVAAINWIGGSDTFYADSVKGRFTISRDNAKNTVYLQMNSLKPEDTAVYYCAATYYNLPYSWGYDSWGQGSQVTVSS = low polyreactivity
QVQLVESGGGSVQAGGSLRLSCAASGITSYGYAMGWYRQAPGKERDLVASISRTGGNTYADSVKGRFTISRDNAKNTVYLQMNSLKPEDTAVYYCNAGRSWDYWYGYDYWGQGTQVTVSS = low polyreactivity

---

assay: yeast display, Sf9 membrane polyspecificity reagent, FACS + sequencing; frameworks hold sequencing errors
reportedEndpoint: polyreactivity (PSR sort gate)

Example entries begin here.
QVQLVESGGGLVQAGGSLRLSCAASGRIFWTNAMGWYRQAPGKERELVAAISYRGGRTYYADSVKGRFTISRDNAKNTVYLQMNSLKPEDTAVYYCAAFTAQGPKYDYWGQGTQVTVSS = high polyreactivity
QVQLVESAGGLVQAGGSLRLSCAATGSTVDRNGMGWYRQAPGKERELVASISGRGGSTYYADSVKGRFTISRDHAKNTVYLQMNRLKPEDTAVYYCAVRYGFFSRYNSWGQGTQVTVSS = high polyreactivity
QVQLVESGGGLVQAGGSLRLSCAASGRIFGRNTMGWYRQAPGKEREFVAAITWSGGSTYYADSVKGRFTISRDNAKNTVYLQMNSLKPEDTAVYYCAAPSYYRYDYWGQGTQVTVSS = high polyreactivity
QVQLVESGGGLVQAGGSLRLSCAASGIILRRYAMGWYRQAPGKERELVARISYRGGRTNYADSVKGRFTISRDNAKNTFYLEMNSLKPEDTAVYYCDAVDWYYHEGTAYNYWGQGTQVTVSS = high polyreactivity

# evaluate next
# polyreactivity (PSR sort gate) of QVQLVESGGGLVQAGGSLRLSCAASAFILYRNAMGWYRQAPGKERELVAAITWNGDRTHYADSVMGRFTISRDNAKNTVYLQMNSLKPEDNAVYYCAAYYVSVRGGRYRNKWYDHWGQGTQVTVSS = high polyreactivity

---

experiment: yeast display, Sf9 membrane polyspecificity reagent, FACS + sequencing; frameworks hold sequencing errors
reportedEndpoint: polyreactivity (PSR sort gate)

QDQLVESGGGLVQAGGSLRLSCAASGLTFEVYAMGWYRQAPGKERELVAAISSGGGSKYYADSVKGRFTISRDNAKNTVYLQMISLKPEDTAVYYCNAVAKLYYWRYDYLGQGTQVTVSS = low polyreactivity
QVQLVESGGGLVQAGGSLRLSCAASGRTFGPNVIGWYRQAPGKERELVAAITSGGTTYYADSVKGRFTISRDNAKNTVYLQMNSLKPEDTAVYYCNARYVYHSSFAGFDYWGQGTQVTVSS = low polyreactivity

---

experiment: yeast display, Sf9 membrane polyspecificity reagent, FACS + sequencing; frameworks hold sequencing errors
reportedEndpoint: polyreactivity (PSR sort gate)

QVQLVESGGGLVQAGGSLRLSCAASGSTFYSNAMGWYRQAPGKERELVAAIDWGGGSTYYADSVKGRFTISRDNAKNTVYLQMNSLKPEDTAVYYCATDANGYYNYDYWGQGTQVTVSS = low polyreactivity
QVQLVESGGGLVQAGGSLRLSCAASGFIFNAYAMGWYRQAPGKERELVAAVSWSGARTYYADSVKGRFTISRDNAKNTVYLQMNSLKPEDTAVYYCAAEYSGVHYQQAYDYSEGLDYWGQGTQVTVSS = low polyreactivity
QVQLVESVGGLVQAGGSLRLSCPASGSIFGPYAMGWYRQAPGKERELVAAMTIGGDNTYYADSVKGRFTISRDNAKNTVYLQMNSLKPEDTAVYYCAAKYYGGKPHYYEYYYWGQGTQVTVSS = low polyreactivity
QVQLVESGGGLVQAGGSLRLSCAASGFTFRSYAMGWYRQAPGKERELVADISIRGGGTYYADTVKGRFTISRDNAKNTVYLQMNSLKPEDTAVYYCAAERYKPFLWPRYDYWGQGTQVTVSS = low polyreactivity
